The reader will find reported Kd values listed item by item below.
# measured.on: T1, HisβTrCP/Skp1 and HisβTrCP/GSTSkp1 (immobilised on NTA Biacore chip) (UniProt Q9Y297 175-605; P63208 1-163)
# T1 construct: SPR: KD values from both surfaces (with or without the GST moiety) were averaged to give the apparent KD; also called βTrCP surfaces
# procedure.text: SPR, Biacore T200, βTrCP/Skp1 immobilised
Non-standard residues stand in square brackets, D forms with d. *: point of attachment. Benzenesulfonyl(4-OMe) = COc1ccc(S(=O)(=O)*)cc1; 2Naphthylsulfonyl = O=S(=O)(c1ccc2ccccc2c1)*; 3,4‑(MeO)2‑PhSO2 = COc1ccc(S(=O)(=O)*)cc1OC; 4‑(BuO)‑PhSO2 = CCCCOc1ccc(S(=O)(=O)*)cc1; Phe(3-F) = N[C@@H](Cc1cccc(F)c1)C(=O)O; 1Nal = N[C@@H](Cc1cccc2ccccc12)C(=O)O; Tos = Cc1ccc(S(=O)(=O)*)cc1; Ethoxycarbonyl = CCOC(=O)*; Propionyl = CCC(=O)*; Bz = O=C(c1ccccc1)*; Moc = COC(=O)*
endpoint.name: Kd

2Naphthylsulfonyl-[dD]EG[Phe(3-F)]WE-NH2 (SMILES NC(=O)[C@H](CCC(=O)O)NC(=O)[C@H](Cc1c[nH]c2ccccc12)NC(=O)[C@H](Cc1cccc(F)c1)NC(=O)CNC(=O)[C@H](CCC(=O)O)NC(=O)[C@@H](CC(=O)O)NS(=O)(=O)c1ccc2ccccc2c1, also called UBP031) [2-NaphthylSO2-dEGF(3F)WE-NH2]; 262 nM
Tos-[dD]EG[Phe(3-F)]WE-NH2 (SMILES Cc1ccc(S(=O)(=O)N[C@H](CC(=O)O)C(=O)N[C@@H](CCC(=O)O)C(=O)NCC(=O)N[C@@H](Cc2cccc(F)c2)C(=O)N[C@@H](Cc2c[nH]c3ccccc23)C(=O)N[C@@H](CCC(=O)O)C(N)=O)cc1, also called UBP021) [Ts-dEGF(3F)WE-NH2]; 190 nM
Tos-[dD]EG[Phe(3-F)]WD-NH2 (SMILES Cc1ccc(S(=O)(=O)N[C@H](CC(=O)O)C(=O)N[C@@H](CCC(=O)O)C(=O)NCC(=O)N[C@@H](Cc2cccc(F)c2)C(=O)N[C@@H](Cc2c[nH]c3ccccc23)C(=O)N[C@@H](CC(=O)O)C(N)=O)cc1, also called UBP027) [Ts-dEGF(3F)WD-NH2]; 680 nM
Ac-[dD]EG[Phe(3-F)]WE-NH2 (also called UBP017) [Ac-dEGF(3F)WE-NH2]; 250 nM
Tos-[dD]DG[Phe(3-F)]WD-NH2 (SMILES Cc1ccc(S(=O)(=O)N[C@H](CC(=O)O)C(=O)N[C@@H](CC(=O)O)C(=O)NCC(=O)N[C@@H](Cc2cccc(F)c2)C(=O)N[C@@H](Cc2c[nH]c3ccccc23)C(=O)N[C@@H](CC(=O)O)C(N)=O)cc1, also called UBP028) [Ts-dDGF(3F)WD-NH2]; 637 nM
Ethoxycarbonyl-[dD]EG[Phe(3-F)]WE-NH2 (SMILES CCOC(=O)N[C@H](CC(=O)O)C(=O)N[C@@H](CCC(=O)O)C(=O)NCC(=O)N[C@@H](Cc1cccc(F)c1)C(=O)N[C@@H](Cc1c[nH]c2ccccc12)C(=O)N[C@@H](CCC(=O)O)C(N)=O, also called UBP023) [EtO(CO)-dEGF(3F)WE-NH2]; 34 nM
Ac-[dD]EG[Phe(3-F)][1Nal]E-NH2 (SMILES CC(=O)N[C@H](CC(=O)O)C(=O)N[C@@H](CCC(=O)O)C(=O)NCC(=O)N[C@@H](Cc1cccc(F)c1)C(=O)N[C@@H](Cc1cccc2ccccc12)C(=O)N[C@@H](CCC(=O)O)C(N)=O, also called UBP016) [Ac-dEGF(3F)1NalE-NH2]; 590 nM
{Benzenesulfonyl(4-OMe)}-DEG[Phe(3-F)]WE-NH2 (SMILES COc1ccc(S(=O)(=O)N[C@@H](CC(=O)O)C(=O)N[C@@H](CCC(=O)O)C(=O)NCC(=O)N[C@@H](Cc2cccc(F)c2)C(=O)N[C@@H](Cc2c[nH]c3ccccc23)C(=O)N[C@@H](CCC(=O)O)C(N)=O)cc1, also called UBP026) [4-(MeO)-PhSO2-DEGF(3F)WE-NH2]; 495 nM
Bz-[dD]EG[Phe(3-F)]WE-NH2 (also called UBP018) [Bz-dEGF(3F)WE-NH2]; 424 nM
Moc-[dD]EG[Phe(3-F)]WE-NH2 (SMILES COC(=O)N[C@H](CC(=O)O)C(=O)N[C@@H](CCC(=O)O)C(=O)NCC(=O)N[C@@H](Cc1cccc(F)c1)C(=O)N[C@@H](Cc1c[nH]c2ccccc12)C(=O)N[C@@H](CCC(=O)O)C(N)=O, also called UBP020) [MeO(CO)-dEGF(3F)WE-NH2]; 53 nM
Propionyl-[dD]EG[Phe(3-F)]WE-NH2 (also called UBP019) [Et(CO)-dEGF(3F)WE-NH2]; 150 nM
{3,4‑(MeO)2‑PhSO2}-[dD]EG[Phe(3-F)]WE-NH2 (SMILES COc1ccc(S(=O)(=O)N[C@H](CC(=O)O)C(=O)N[C@@H](CCC(=O)O)C(=O)NCC(=O)N[C@@H](Cc2cccc(F)c2)C(=O)N[C@@H](Cc2c[nH]c3ccccc23)C(=O)N[C@@H](CCC(=O)O)C(N)=O)cc1OC, also called UBP029) [3,4-(MeO)2-PhSO2-dEGF(3F)WE-NH2]; 603 nM
{4‑(BuO)‑PhSO2}-[dD]EG[Phe(3-F)]WE-NH2 (also called UBP030) [4-(BuO)-PhSO2-dEGF(3F)WE-NH2]; 767 nM
Tos-[dD]DG[Phe(3-F)]WE-NH2 (SMILES Cc1ccc(S(=O)(=O)N[C@H](CC(=O)O)C(=O)N[C@@H](CC(=O)O)C(=O)NCC(=O)N[C@@H](Cc2cccc(F)c2)C(=O)N[C@@H](Cc2c[nH]c3ccccc23)C(=O)N[C@@H](CCC(=O)O)C(N)=O)cc1, also called UBP025) [Ts-dDGF(3F)WE-NH2]; 292 nM
